What follows is a record of IC50 for Human PDGFRβ, cytoplasmic domain (GST-PDGFRβ) (Homo sapiens).
readout label: IC50

In [3]: df
Out[3]:
                                 test_smiles                              assay_target          result
 0  CCn1cc2ncc(N[C@@H](C)c3cc(NC(=O)Cc4cncc(C(F)(F)F)c4)ccc3F)nc2n1  Human PDGFRβ, cytoplasmic domain (GST-PDGFRβ) (Homo sapiens)  300 to 1000 nM
 1  Cc1cncc(C(=O)Nc2cccc([C@H](C)Nc3cnc4[nH]cc(-c5ccncc5)c4n3)c2)c1  Human PDGFRβ, cytoplasmic domain (GST-PDGFRβ) (Homo sapiens)        < 300 nM
 2  CCn1cc2ncc(N[C@@H](C)c3cccc(NC(=O)c4cnc(C5CCCC5)s4)c3)nc2n1  Human PDGFRβ, cytoplasmic domain (GST-PDGFRβ) (Homo sapiens)        < 300 nM
 3  CCn1cc2ncc(N[C@@H](C)c3cc(NC(=O)c4ccc(N5CCN(C)CC5)c(Cl)c4)ccc3F)nc2n1  Human PDGFRβ, cytoplasmic domain (GST-PDGFRβ) (Homo sapiens)        < 300 nM
 4  CCn1cc2ncc(N[C@@H](C)c3cccc(NC(=O)c4ccc(CN5CC[C@H](F)C5)c(Cl)c4)c3)nc2n1  Human PDGFRβ, cytoplasmic domain (GST-PDGFRβ) (Homo sapiens)        < 300 nM
 5  CCn1cc2ncc(N[C@@H](C)c3cc(NC(=O)Cc4ccc5c(n4)OCCC5)ccc3C)nc2n1  Human PDGFRβ, cytoplasmic domain (GST-PDGFRβ) (Homo sapiens)       ≥ 1000 nM
 6  Cc1c[nH]c2ncc(N[C@@H](C)c3cccc(NC(=O)c4ccc(C(F)(F)F)nc4)c3)nc12  Human PDGFRβ, cytoplasmic domain (GST-PDGFRβ) (Homo sapiens)        < 300 nM
 7  CCn1cc2ncc(N[C@@H](C)c3cc(NC(=O)c4ccc(OC5CCN(C)CC5)c(Cl)c4)ccc3F)nc2n1  Human PDGFRβ, cytoplasmic domain (GST-PDGFRβ) (Homo sapiens)        < 300 nM
 8  Cc1cc2ncc(N[C@@H](C)c3cc(NC(=O)c4ccc(C5CC5)nc4)ccc3F)nc2s1  Human PDGFRβ, cytoplasmic domain (GST-PDGFRβ) (Homo sapiens)        < 300 nM
 9  C#Cc1cncc(C(=O)Nc2cccc([C@H](C)Nc3cnc4cnn(C)c4n3)c2)c1  Human PDGFRβ, cytoplasmic domain (GST-PDGFRβ) (Homo sapiens)  300 to 1000 nM
10  CCNc1ccc(C(=O)Nc2cccc([C@H](C)Nc3cnc4cn(CC)nc4n3)c2)cn1  Human PDGFRβ, cytoplasmic domain (GST-PDGFRβ) (Homo sapiens)       ≥ 1000 nM
11  COc1ccc(-n2ccc3ncc(N[C@@H](C)c4cccc(NC(=O)c5cncc(C)c5)c4)cc32)cc1OC  Human PDGFRβ, cytoplasmic domain (GST-PDGFRβ) (Homo sapiens)       ≥ 1000 nM
12  CCn1cc2ncc(N[C@@H](C)c3cccc(NC(=O)c4ccc(C(F)(F)F)c(Cl)c4)c3)nc2n1  Human PDGFRβ, cytoplasmic domain (GST-PDGFRβ) (Homo sapiens)        < 300 nM
13  CCn1cc2ncc(N[C@@H](C)c3cc(NC(=O)Cc4cncc(F)c4)ccc3C)nc2n1  Human PDGFRβ, cytoplasmic domain (GST-PDGFRβ) (Homo sapiens)        < 300 nM
14  C[C@H](Nc1cnc2cnn(C)c2n1)c1cccc(NC(=O)c2cnc3c(c2)OCCO3)c1  Human PDGFRβ, cytoplasmic domain (GST-PDGFRβ) (Homo sapiens)        < 300 nM

* * *

target: Human PDGFRα, cytoplasmic domain (GST-PDGFRα) (Homo sapiens); assay: Human PDGFRα biochemical inhibition assay (off-chip Mobility Shift Assay)
Sequence (P16234 550-1089 T674I): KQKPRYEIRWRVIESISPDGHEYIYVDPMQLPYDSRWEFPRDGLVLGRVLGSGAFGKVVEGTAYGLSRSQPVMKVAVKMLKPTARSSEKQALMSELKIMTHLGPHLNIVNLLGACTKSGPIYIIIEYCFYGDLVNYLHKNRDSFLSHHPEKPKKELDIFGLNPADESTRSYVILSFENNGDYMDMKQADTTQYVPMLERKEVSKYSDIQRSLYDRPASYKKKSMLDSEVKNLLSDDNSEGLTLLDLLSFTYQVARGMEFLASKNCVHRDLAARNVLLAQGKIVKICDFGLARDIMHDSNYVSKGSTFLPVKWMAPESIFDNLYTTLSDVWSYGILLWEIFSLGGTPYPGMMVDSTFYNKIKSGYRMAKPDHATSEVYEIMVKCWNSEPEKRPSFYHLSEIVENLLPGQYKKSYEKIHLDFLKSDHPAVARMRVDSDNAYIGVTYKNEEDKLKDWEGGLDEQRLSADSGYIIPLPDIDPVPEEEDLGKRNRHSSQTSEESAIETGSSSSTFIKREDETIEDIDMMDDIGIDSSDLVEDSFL
pIC50: −log10 of the molar value.
Below is a list of entries, each paired with its recorded pIC50 value.
readout label: pIC50

>>> print(df.to_string())
                                 test_smiles        result
 0  Cc1cncc(C(=O)Nc2cccc([C@H](C)Nc3cnc4cccc(Cl)c4n3)c2)c1        > 6.52
 1  CCn1cc2ncc(N[C@@H](C)c3cc(NC(=O)Cc4ccc5c(n4)CCCC5)ccc3C)nc2n1        ≤ 6.00
 2  Cc1cncc(C(=O)Nc2cccc([C@H](C)Nc3cnc4cn(CCF)nc4n3)c2)c1        > 6.52
 3  CCn1cc2ncc(N[C@@H](C)c3cccc(NC(=O)c4ccc(CN5CCCC5)nc4)c3)nc2n1        ≤ 6.00
 4  CCn1cc2ncc(N[C@@H](C)c3cccc(NC(=O)c4ccc(N5CCCC5)c(F)c4)c3)nc2n1        > 6.52
 5  C[C@H](Nc1cnc2cnn(C)c2n1)c1cccc(NC(=O)N2CCc3ccccc3C2)c1        > 6.52
 6  CCn1cc2ncc(N[C@@H](C)c3cc(NC(=O)c4cnc(C5CC5)s4)ccc3F)nc2n1        > 6.52
 7  C[C@H](Nc1cnc2cnn(C)c2n1)c1cccc(NC(=O)Nc2ccccc2)c1        > 6.52
 8  C[C@H](Nc1cnc2cnn(C)c2n1)c1cccc(NC(=O)c2cc(C(F)(F)F)nn2C)c1        > 6.52
 9  CCc1ccc(CC(=O)Nc2ccc(C)c([C@H](C)Nc3cnc4cn(CC)nc4n3)c2)nc1        > 6.52
10  CCn1cc2ncc(N[C@@H](C)c3cccc(NC(=O)c4cnc(CO)s4)c3)nc2n1        ≤ 6.00
11  Cc1cncc(C(=O)Nc2cccc([C@H](C)Nc3cnn4cc(-c5cnn(C)c5)ccc34)c2)c1        > 6.52
12  Cc1cc2ncc(N[C@@H](C)c3cccc(NC(=O)c4cnn(C5CCC5)c4)c3)nc2s1        > 6.52
13  C[C@H](Nc1cnc2cnn(C)c2n1)c1cccc(NC(=O)c2cnc3c(c2)OCCO3)c1        > 6.52
14  Cc1n[nH]c2ncc(N[C@@H](C)c3cccc(NC(=O)c4cnn(C(F)F)c4)c3)nc12        > 6.52
15  Cc1cncc(C(=O)Nc2cccc([C@H](C)Nc3cnc4cc(F)ccc4n3)c2)c1        > 6.52
16  CCn1cc2ncc(N[C@@H](C)c3cccc(NC(=O)c4cncc(C(C)(C)F)c4)c3)nc2n1        > 6.52
17  C[C@H](Nc1cnc2[nH]cc(-c3cnn(C)c3)c2n1)c1cccc(NC(=O)c2ccc(C(F)(F)F)nc2)c1  6.00 to 6.52
18  C[C@H](Nc1cnc2cnn(C)c2n1)c1cccc(NC(=O)c2cnc(C3CC3)s2)c1        > 6.52
19  CCn1cc2ncc(N[C@@H](C)c3cccc(NC(=O)Nc4cc(C)ccn4)c3)nc2n1        > 6.52
20  CCn1cc2ncc(N[C@@H](C)c3cc(NC(=O)Cc4ccc(C)c(C)n4)ccc3C)nc2n1        > 6.52
21  CCn1cc2ncc(N[C@@H](C)c3cccc(NC(=O)c4ccc(Cn5ccnc5)c(C)c4)c3)nc2n1        > 6.52
22  C[C@H](Nc1cnc2cnn(C)c2n1)c1cccc(NC(=O)c2cncc(C(C)(C)F)c2)c1        > 6.52
23  Cc1cncc(C(=O)Nc2cccc([C@H](C)Nc3cnc4cnn(-c5cccnc5)c4n3)c2)c1        > 6.52
24  C[C@H](Nc1cnc2cnn(C)c2n1)c1cccc(NC(=O)c2cc(C(F)(F)F)n(C)n2)c1        > 6.52
25  CCn1cc2ncc(N[C@@H](C)c3cc(NC(=O)c4cnc(C#N)c(C)c4)ccc3F)nc2n1        > 6.52
26  C[C@H](Nc1cnc2cnn(C)c2n1)c1cccc(NC(=O)c2cnc3ccn(C)c3c2)c1        > 6.52
27  Cc1ccc(C(=O)Nc2cccc([C@H](C)Nc3cnc4cnn(C)c4n3)c2)cc1C        > 6.52
28  CCn1cc2ncc(N[C@@H](C)c3cccc(NC(=O)c4cnc(CN5CC6(COC6)C5)c(Cl)c4)c3)nc2n1  6.00 to 6.52
29  CCn1cc2ncc(N[C@@H](C)c3cccc(NC(=O)c4ccc(C)c(F)c4)c3)nc2n1        > 6.52
30  CCn1cc2ncc(N[C@@H](C)c3cccc(NC(=O)Nc4cnc(NC)c(C)c4)c3)nc2n1        > 6.52

* * *

biological target: Human PDGFRα, cytoplasmic domain (GST-PDGFRα) (Homo sapiens); assay: Human PDGFRα biochemical inhibition assay (off-chip Mobility Shift Assay)
pIC50: −log10 of the molar value.
Below is a list of entries, each paired with its recorded pIC50 value.
readout label: pIC50

>>> df
                                    molecule  readout_label        result
 0  C[C@H](Nc1cnc2[nH]cc(-c3cnn(C)c3)c2n1)c1cccc(NC(=O)c2cnc(C3CC3)s2)c1          pIC50        > 6.52
 1  CCc1cncc(C(=O)Nc2cccc([C@H](C)Nc3cnc4cn[nH]c4n3)c2)c1          pIC50        > 6.52
 2  Cc1cc2ncc(N[C@@H](C)c3cc(NC(=O)c4ccc(C5CC5)nc4)ccc3F)nc2s1          pIC50        > 6.52
 3  CCNc1ncc(C(=O)Nc2cccc([C@H](C)Nc3cnc4cnn(C)c4n3)c2)cc1C          pIC50        > 6.52
 4  CCn1cc2ncc(N[C@@H](C)c3cccc(NC(=O)c4cnc(F)c(C)c4)c3)nc2n1          pIC50        > 6.52
 5  CCn1cc2ncc(N[C@@H](C)c3cccc(NC(=O)Cc4cc(Cl)ccn4)c3)nc2n1          pIC50  6.00 to 6.52
 6  Cc1cc(C(=O)Nc2cccc([C@H](C)Nc3cnc4cnn(C)c4n3)c2)cnc1C(F)(F)F          pIC50        > 6.52
 7  CCn1cc2ncc(N[C@@H](C)c3cc(NC(=O)Cc4cnc(C)c(F)c4)ccc3C)nc2n1          pIC50        > 6.52
 8  C[C@H](Nc1cnc2cnn(C)c2n1)c1cccc(NC(=O)c2cncc(C(C)(C)O)c2)c1          pIC50        > 6.52
 9  CCc1cc(C(=O)Nc2cccc([C@H](C)Nc3cnc4cn(CC)nc4n3)c2)ccc1CN1CCN(C)CC1          pIC50        > 6.52
10  CCn1ncc2ncc(N[C@@H](C)c3cccc(NC(=O)c4cncc(C)c4)c3)cc21          pIC50        > 6.52
11  C[C@H](Nc1cnc2cnn(C)c2n1)c1cccc(NC(=O)[C@H]2C[C@H]2C(F)(F)F)c1          pIC50        ≤ 6.00
12  CCn1cc2ncc(N[C@@H](C)c3cc(NC(=O)Cc4ccc(C(C)(C)F)cn4)ccc3C)nc2n1          pIC50  6.00 to 6.52
13  Cc1c[nH]c2ncc(N[C@@H](C)c3cccc(NC(=O)c4cc(C(F)(F)F)nn4C)c3)nc12          pIC50        > 6.52
14  COc1ccc(-n2ncc3ncc(N[C@@H](C)c4cccc(NC(=O)c5cncc(C)c5)c4)nc32)cc1OC          pIC50        > 6.52
15  Cc1cncc(C(=O)Nc2cccc([C@H](C)Nc3cnc4[nH]c(=O)n(C)c4n3)c2)c1          pIC50        > 6.52
16  COc1ccc2nc(N[C@@H](C)c3cccc(NC(=O)c4cncc(C)c4)c3)cnc2c1          pIC50        > 6.52
17  CCn1cc2ncc(N[C@@H](C)c3cc(NC(=O)c4ccc(CN5CCN(C)CC5)c(Cl)c4)ccc3F)nc2n1          pIC50        > 6.52
18  CCn1cc2ncc(N[C@@H](C)c3cc(NC(=O)c4ccc(C(F)(F)F)nc4)ccc3Cl)nc2n1          pIC50        > 6.52
19  Cc1cncc(C(=O)Nc2cccc([C@H](C)Nc3cnc4[nH]cnc4n3)c2)c1          pIC50  6.00 to 6.52
20  CCn1cc2ncc(N[C@@H](C)c3cccc(NC(=O)c4ccc(CN5CC6CC6C5)c(C)c4)c3)nc2n1 (stereo partly drawn)          pIC50        > 6.52
21  CCn1cc2ncc(N[C@@H](C)c3cccc(NC(=O)c4cnc5cnn(C)c5c4)c3)nc2n1          pIC50  6.00 to 6.52
22  C[C@H](Nc1cnc2cnn(C)c2n1)c1cccc(NC(=O)C2CC2C(F)(F)F)c1 (stereo partly drawn)          pIC50  6.00 to 6.52
23  CNc1ncc(C(=O)Nc2cccc([C@H](C)Nc3cnc4[nH]cc(-c5cnn(C)c5)c4n3)c2)cc1C          pIC50        > 6.52
24  CCn1cc2ncc(N[C@@H](C)c3cccc(NC(=O)Nc4ccc(C(F)(F)F)nc4)c3)nc2n1          pIC50        > 6.52
25  C[C@H](Nc1cnc2cn[nH]c2n1)c1cccc(NC(=O)c2cncc(C3CC3)c2)c1          pIC50        > 6.52
26  CCn1cc2ncc(N[C@@H](C)c3cccc(NC(=O)c4ccc(C)c(Cl)c4)c3)nc2n1          pIC50        > 6.52
27  COc1ncc(C(=O)Nc2cccc([C@H](C)Nc3cnc4[nH]cc(-c5cnn(C)c5)c4n3)c2)cc1C          pIC50        > 6.52
28  C[C@H](Nc1cnc2cnn(C)c2n1)c1cccc(NC(=O)c2ccc(Cl)s2)c1          pIC50        > 6.52
29  CCn1cc2ncc(N[C@@H](C)c3cccc(NC(=O)c4ccc(CN5CCN(C)CC5)c(C5CC5)c4)c3)nc2n1          pIC50        > 6.52
